# studyTarget: HLA-B*44:02
# measurementDescription: IEDB peptide-MHC binding, purified MHC/direct/fluorescence; filed as Kd, often an IC50 or EC50 that approximates it; bounds were set here for any values at or beyond the usual limits of such assays
# conditions: source organism: Giardia lamblia ATCC 50803
pKd: −log10 of the molar value.
property: pKd

Per the record, `LLPYPIAGC` has pKd of ≤ 4.70

---

# studyTarget: HLA-A*24:02
# measurementDescription: IEDB peptide-MHC binding, purified MHC/competitive/radioactivity; filed as Kd, often an IC50 or EC50 that approximates it; bounds were set here for any values at or beyond the usual limits of such assays
# conditions: source organism: Mammarenavirus brazilense
pKd: −log10 of the molar value.
property: pKd

Per the record, `TERSASGGVY` has pKd of ≤ 4.15

---

# studyTarget: HLA-B*07:02
# measurementDescription: IEDB peptide-MHC binding, purified MHC/direct/fluorescence; filed as Kd, often an IC50 or EC50 that approximates it; bounds were set here for any values at or beyond the usual limits of such assays
# conditions: source organism: Listeria monocytogenes serotype 4b str. H7858
property: Kd

Per the record, `LMKAPGTYH` has Kd of ≥ 20 µM

---

# studyTarget: HLA-B*18:01
# measurementDescription: IEDB peptide-MHC binding, purified MHC/competitive/radioactivity; filed as Kd, often an IC50 or EC50 that approximates it; bounds were set here for any values at or beyond the usual limits of such assays
# conditions: source organism: Mammarenavirus choriomeningitidis
property: Kd

Per the record, `SDAALHNMI` has Kd of ≥ 77.5 µM

---

# studyTarget: HLA-A*26:01
# measurementDescription: IEDB peptide-MHC binding, purified MHC/direct/fluorescence; filed as Kd, often an IC50 or EC50 that approximates it; bounds were set here for any values at or beyond the usual limits of such assays
# conditions: source organism: Influenza A virus (A/turkey/NC/17026/1988(H1N1))
property: Kd

Per the record, `VSFDQNLDY` has Kd of ≥ 20 µM

---

# studyTarget: HLA-B*15:01
# measurementDescription: IEDB peptide-MHC binding, purified MHC/direct/fluorescence; filed as Kd, often an IC50 or EC50 that approximates it; bounds were set here for any values at or beyond the usual limits of such assays
# conditions: source organism: Camelpox virus M-96
property: pKd
pKd (log units): -log10 of the concentration in mol/L.

`FVFEATKLY` on HLA-B*15:01 gives pKd = 7.75

---

# studyTarget: HLA-A*02:17
# measurementDescription: IEDB peptide-MHC binding, purified MHC/competitive/radioactivity; filed as Kd, often an IC50 or EC50 that approximates it; bounds were set here for any values at or beyond the usual limits of such assays
# conditions: source organism: Dengue virus 4 Dominica/814669/1981
property: Kd (nM)
Write the value in nM as a bare number.

Per the record, `KLSMGLITI` has Kd of 1810

---

# studyTarget: HLA-B*08:01
# measurementDescription: IEDB peptide-MHC binding, purified MHC/direct/fluorescence; filed as Kd, often an IC50 or EC50 that approximates it; bounds were set here for any values at or beyond the usual limits of such assays
# conditions: source organism: SARS-CoV1
property: Kd (µM)
Write the value in µM as a bare number.

`KSYEHQTPF` on HLA-B*08:01 gives Kd = 14.4

---

# studyTarget: HLA-A*02:01
# measurementDescription: IEDB peptide-MHC binding, purified MHC/competitive/fluorescence; bounds were set here for any values at or beyond the usual limits of such assays
# conditions: source organism: Vaccinia virus
Measured IC50 accompanies every entry in the list below.
Write the value in µM as a bare number.

- sequenceString: "TLVGVVVST"
  obsValue: 55.4

Then there is this sequence:
Per the record, `NLNVTTQSI` has IC50 of 44.7

---

# studyTarget: HLA-A*03:01
# measurementDescription: IEDB peptide-MHC binding, purified MHC/direct/fluorescence; filed as Kd, often an IC50 or EC50 that approximates it; bounds were set here for any values at or beyond the usual limits of such assays
# conditions: source organism: Cryptosporidium parvum
property: Kd

`FFAFGHMIK` on HLA-A*03:01 gives Kd = ≥ 20 µM

---

Measured pKd accompanies every entry in the list below.
# studyTarget: HLA-A*26:01
# measurementDescription: IEDB peptide-MHC binding, purified MHC/competitive/radioactivity; filed as Kd, often an IC50 or EC50 that approximates it; bounds were set here for any values at or beyond the usual limits of such assays
# conditions: source organism: Lassa virus Josiah
pKd: −log10 of the molar value.

`YCNYSKYWYL` on HLA-A*26:01 gives pKd = ≤ 4.16

`HYLCLNCLT` on HLA-A*26:01 gives pKd = ≤ 4.11

`KCWLVSNGSY` on HLA-A*26:01 gives pKd = ≤ 4.16

---

# studyTarget: HLA-A*24:02
# measurementDescription: IEDB peptide-MHC binding, purified MHC/competitive/fluorescence; filed as Kd, often an IC50 or EC50 that approximates it; bounds were set here for any values at or beyond the usual limits of such assays
# conditions: source organism: Cryptosporidium parvum Iowa II
property: Kd (nM)
Write the value in nM as a bare number.

Per the record, `PYMSALFWI` has Kd of 0.8

---

# studyTarget: HLA-A*31:01
# measurementDescription: IEDB peptide-MHC binding, purified MHC/direct/fluorescence; filed as Kd, often an IC50 or EC50 that approximates it; bounds were set here for any values at or beyond the usual limits of such assays
# conditions: source organism: Mammarenavirus lassaense
property: Kd

Per the record, `FVRSSPANF` has Kd of ≥ 20 µM

---

# studyTarget: HLA-B*46:01
# measurementDescription: IEDB peptide-MHC binding, purified MHC/direct/fluorescence; filed as Kd, often an IC50 or EC50 that approximates it; bounds were set here for any values at or beyond the usual limits of such assays
# conditions: source organism: H9N2 subtype Influenza A virus (A/swine/Korea/S83/2004(H9N2))
property: Kd

Per the record, `FQKDAKVLF` has Kd of ≥ 20 µM

---

Measured pIC50 accompanies every entry in the list below.
# studyTarget: HLA-A*24:02
# measurementDescription: IEDB peptide-MHC binding, purified MHC/competitive/radioactivity; bounds were set here for any values at or beyond the usual limits of such assays
# conditions: source organism: Homo sapiens
pIC50 (log units): -log10 of the concentration in mol/L.

- sequenceString: "NYARTEDFF"
  pIC50: 7.17

Then there is this sequence:
Per the record, `TYSVSFDSLF` has pIC50 of 7.85

---

# studyTarget: HLA-B*44:03
# measurementDescription: IEDB peptide-MHC binding, purified MHC/competitive/radioactivity; filed as Kd, often an IC50 or EC50 that approximates it; bounds were set here for any values at or beyond the usual limits of such assays
# conditions: source organism: Dengue virus 3 Martinique/1243/1999
property: Kd (nM)
Write the value in nM as a bare number.

`MELKYSWKT` on HLA-B*44:03 gives Kd = 343

---

# studyTarget: HLA-B*57:01
# measurementDescription: IEDB peptide-MHC binding, purified MHC/competitive/radioactivity; filed as Kd, often an IC50 or EC50 that approximates it; bounds were set here for any values at or beyond the usual limits of such assays
# conditions: source organism: Dengue virus 3 China/80-2/1980
property: Kd (nM)
Write the value in nM as a bare number.

Per the record, `KTSLCLMMML` has Kd of 18.8

---

# studyTarget: HLA-A*31:01
# measurementDescription: IEDB peptide-MHC binding, purified MHC/competitive/fluorescence; filed as Kd, often an IC50 or EC50 that approximates it; bounds were set here for any values at or beyond the usual limits of such assays
# conditions: source organism: Vibrio vulnificus YJ016
property: Kd

Per the record, `ASILSRMAY` has Kd of ≥ 20 µM

---

# studyTarget: HLA-A*29:02
# measurementDescription: IEDB peptide-MHC binding, purified MHC/direct/fluorescence; filed as Kd, often an IC50 or EC50 that approximates it; bounds were set here for any values at or beyond the usual limits of such assays
# conditions: source organism: Orthohantavirus hantanense
property: Kd

Per the record, `LVRDITESL` has Kd of ≥ 20 µM

---

# studyTarget: HLA-C*15:02
# measurementDescription: IEDB peptide-MHC binding, purified MHC/direct/fluorescence; filed as Kd, often an IC50 or EC50 that approximates it; bounds were set here for any values at or beyond the usual limits of such assays
# conditions: source organism: Yersinia pestis Nepal516
property: Kd

Per the record, `YMYDFILRF` has Kd of ≥ 20 µM

---

Measured Kd accompanies every entry in the list below.
# studyTarget: HLA-B*44:03
# measurementDescription: IEDB peptide-MHC binding, purified MHC/competitive/radioactivity; filed as Kd, often an IC50 or EC50 that approximates it; bounds were set here for any values at or beyond the usual limits of such assays
# conditions: source organism: Mammarenavirus machupoense
Write the value in µM as a bare number.

- sequenceString: "KEINFLSQT"
  studyTarget: "HLA-B*44:03"
  Kd (µM): 17.3

Then there is this sequence:
Per the record, `EELSLMYETL` has Kd of 1.32
